Entries and their Reduced relative colony forming efficiency, expressed as % inhibition, HepG2 values follow.
system: HepG2 hepatocellular carcinoma; experiment: Relative colony forming efficiency after antisense treatment (Table 13, FIG. 12); assay type: cell-based, human; details: 0.2 μM antisense oligodeoxyribonucleotide phosphorothioate; HepG2 cells; averages of 2-8 determinations
Strand notation (5' to 3'): a small letter for the sugar, then the base; units joined by * are phosphorothioate-linked, units joined directly phosphodiester-linked; [ ] holds rarer units or linkages, { } end groups; capitals alone tell only the bases. d = 2'-deoxy (DNA)
Value expressed in %; do not type the unit.

Reference set (2 entries):
Item Sequence	Recorded Value
TCAGAGGGGGCAGAGAATCC (antisense; DNA, all phosphorothioate, methylation of C not given here) [AS-II-2044-20]	62.35
TTCTCTTACTCTCTCCTCCG (DNA, all phosphorothioate, methylation of C not given here) [AS-II-1048-20]	77.56

INPUT: Consider the sequence GGAAGATGACAAAGCGGCGG (dG*dG*dA*dA*dG*dA*dT*dG*dA*dC*dA*dA*dA*dG*dC*dG*dG*dC*dG*dG; antisense) [AS-II-425-20] and give its measured Reduced relative colony forming efficiency, expressed as % inhibition, HepG2.
OUTPUT: 97.89

INPUT: What would you report for ATGGAAAAAAAAAATCAGCC (DNA, all phosphorothioate, methylation of C not given here) [AS-II-1390-20] ?
OUTPUT: 90.21

INPUT: What would you report for GCACATCTTCAGTTCATTTA (DNA, all phosphorothioate, methylation of C not given here) [AS-II-1362-20] ?
OUTPUT: 80.41

INPUT: What would you report for TGGGACAGGGTGCACGGGCG (antisense dT*dG*dG*dG*dA*dC*dA*dG*dG*dG*dT*dG*dC*dA*dC*dG*dG*dG*dC*dG) [AS-II-130-20] ?
OUTPUT: 94.28

====

tested on: MIA PaCa-2 pancreatic cell carcinoma; experiment: Relative colony forming efficiency after antisense treatment (Table 13); assay type: cell-based, human; conditions: 0.2 μM antisense oligodeoxyribonucleotide phosphorothioate; MIA PaCa-2 cells; averages of 2-8 determinations
Strand notation (5' to 3'): a small letter for the sugar, then the base; units joined by * are phosphorothioate-linked, units joined directly phosphodiester-linked; [ ] holds rarer units or linkages, { } end groups; capitals alone tell only the bases. d = 2'-deoxy (DNA)
Entries and their Reduced relative colony forming efficiency, expressed as % inhibition, MIA PaCa-2 values follow.
Value expressed in %; do not type the unit.

Substance	Target Of Assay	Recorded Value
TCGCTCCACCAAGTTTTCAT (dT*dC*dG*dC*dT*dC*dC*dA*dC*dC*dA*dA*dG*dT*dT*dT*dT*dC*dA*dT; antisense) [AS-II-619-20]	MIA PaCa-2 pancreatic cell carcinoma	39.83
TATCTCTCCTCGGGTTTCAG (dT*dA*dT*dC*dT*dC*dT*dC*dC*dT*dC*dG*dG*dG*dT*dT*dT*dC*dA*dG; antisense) [AS-II-549-20]	MIA PaCa-2 pancreatic cell carcinoma	17.01
TTCTGGCAAAAGGTGATACT (DNA, all phosphorothioate, methylation of C not given here) [AS-II-1538-20]	MIA PaCa-2 pancreatic cell carcinoma	50.62
GTATTGCTTCATTAGAGTGC (DNA, all phosphorothioate, methylation of C not given here) [AS-II-1144-20]	MIA PaCa-2 pancreatic cell carcinoma	46.89
CCCAGGACACTACACAAGCC (antisense; DNA, all phosphorothioate, methylation of C not given here) [AS-II-2026-20]	MIA PaCa-2 pancreatic cell carcinoma	87.65

INPUT: Consider the substance GACACAAGGCATCGTTTCAA (antisense; DNA, all phosphorothioate, methylation of C not given here) [AS-II-784-20] and give its measured Reduced relative colony forming efficiency, expressed as % inhibition, MIA PaCa-2.
OUTPUT: 62.04

INPUT: What would you report for AAAACCTTGCTAAAACCCAG (DNA, all phosphorothioate, methylation of C not given here) [AS-II-1197-20] ?
OUTPUT: 70.68

INPUT: What would you report for ATTAAAATCTGCGTTGAAGC (DNA, all phosphorothioate, methylation of C not given here) [AS-II-1700-20] ?
OUTPUT: 34.52

INPUT: What would you report for GGCATCAGTCCTCGTTTCTT (antisense; DNA, all phosphorothioate, methylation of C not given here) [AS-II-933-20] ?
OUTPUT: 35.68

INPUT: What would you report for TTAGTCTTTCCTTCCAGTGA (DNA, all phosphorothioate, methylation of C not given here) [AS-II-1254-20] ?
OUTPUT: 3.32
